biological target: 5-HT4 receptor (Rattus norvegicus, UniProt Q62758); construct: a muscular sample of mucous membrane in esophgus exentrated from a rat; from tissue; host or cells: rat oesophagus, muscularis mucosae (isolated); assay: Agonisting action to 5-HT4 receptor: relaxation of carbachol-contracted muscular sample of mucous membrane of rat esophagus (Baxter et al.); assay type: cell-based; conditions: carbachol contraction, read-out: P EC50 (negative logarithm of concentration causing 50% relaxation) (converted)
Sequence (Q62758 whole entry): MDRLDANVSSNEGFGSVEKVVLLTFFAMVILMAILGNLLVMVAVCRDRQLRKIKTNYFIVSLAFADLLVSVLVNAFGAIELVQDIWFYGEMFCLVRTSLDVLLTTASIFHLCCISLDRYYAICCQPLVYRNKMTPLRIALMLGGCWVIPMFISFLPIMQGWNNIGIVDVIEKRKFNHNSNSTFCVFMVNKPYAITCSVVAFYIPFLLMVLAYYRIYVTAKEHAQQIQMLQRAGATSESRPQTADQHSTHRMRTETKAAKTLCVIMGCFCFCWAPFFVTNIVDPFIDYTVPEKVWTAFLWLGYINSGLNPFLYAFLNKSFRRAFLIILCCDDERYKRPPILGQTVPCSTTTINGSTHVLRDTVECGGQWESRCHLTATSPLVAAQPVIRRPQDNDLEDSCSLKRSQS
Listing: EC50 of selected compounds
Readout Type: EC50 (nM)

1) CC1CCc2c(N)c(Cl)cc(C(=O)NCCC34CCCN3CCC4)c2O1 (centres unmarked) = 20
2) Nc1c(Cl)cc(C(=O)NCCC23CCCN2CCC3)c2c1CCCO2 = 5.01
3) COc1cc2c(c(C(=O)NCCC34CCCN3CCC4)c1)OCCC2 = 25100
4) Nc1c(Cl)cc(C(=O)NCCC23CCCN2CCC3)c2c1C=CCO2 = 25.1
5) O=C(NCCC12CCCN1CCC2)c1cc(Cl)cc2c1OCCC2 = 12600

====

molecular target: 5-HT4 receptor (Rattus norvegicus, UniProt Q62758); construct: a muscular sample of mucous membrane in esophgus exentrated from a rat; from tissue; host or cells: rat oesophagus, muscularis mucosae (isolated); experiment: Agonisting action to 5-HT4 receptor: relaxation of carbachol-contracted muscular sample of mucous membrane of rat esophagus (Baxter et al.); type: cell-based; conditions: carbachol contraction, read-out: P EC50 (negative logarithm of concentration causing 50% relaxation) (converted)
Readout Type: EC50

1) Cc1cc2c(c(C(=O)NCCC34CCCN3CCC4)c1)OCCC2 [Example 9] = 15.8 µM
2) CC(=O)Nc1c(Cl)cc(C(=O)NCCC23CCCN2CCC3)c2c1CCCO2 [Example 10] = 7.94 µM
3) Cc1ccc(C(=O)NCCC23CCCN2CCC3)c2c1CCCO2 [Example 8] = 20 µM
4) O=C(NCCC12CCCN1CCC2)c1cccc2c1OCCC2 [Example 4] = 12.6 µM
5) O=C(NCCC12CCCN1CCC2)c1ccc(Cl)c2c1OCCC2 [Example 5] = 25.1 µM
